target: IL17-RE-IL-17C (Homo sapiens, UniProt Q8NFR9+Q9P0M4); assay: Inhibition of interleukin-17RE/biotinylated IL-17C protein-protein interaction (unknown origin) incubated for 1 hrs by competitive ELISA
Sequence (Q9P0M4 whole entry): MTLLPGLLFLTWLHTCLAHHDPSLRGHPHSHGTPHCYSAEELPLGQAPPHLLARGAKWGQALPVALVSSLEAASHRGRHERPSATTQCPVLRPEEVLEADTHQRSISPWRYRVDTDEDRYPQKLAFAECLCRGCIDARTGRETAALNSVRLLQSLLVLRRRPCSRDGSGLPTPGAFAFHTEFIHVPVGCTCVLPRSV
Sequence (Q8NFR9 whole entry): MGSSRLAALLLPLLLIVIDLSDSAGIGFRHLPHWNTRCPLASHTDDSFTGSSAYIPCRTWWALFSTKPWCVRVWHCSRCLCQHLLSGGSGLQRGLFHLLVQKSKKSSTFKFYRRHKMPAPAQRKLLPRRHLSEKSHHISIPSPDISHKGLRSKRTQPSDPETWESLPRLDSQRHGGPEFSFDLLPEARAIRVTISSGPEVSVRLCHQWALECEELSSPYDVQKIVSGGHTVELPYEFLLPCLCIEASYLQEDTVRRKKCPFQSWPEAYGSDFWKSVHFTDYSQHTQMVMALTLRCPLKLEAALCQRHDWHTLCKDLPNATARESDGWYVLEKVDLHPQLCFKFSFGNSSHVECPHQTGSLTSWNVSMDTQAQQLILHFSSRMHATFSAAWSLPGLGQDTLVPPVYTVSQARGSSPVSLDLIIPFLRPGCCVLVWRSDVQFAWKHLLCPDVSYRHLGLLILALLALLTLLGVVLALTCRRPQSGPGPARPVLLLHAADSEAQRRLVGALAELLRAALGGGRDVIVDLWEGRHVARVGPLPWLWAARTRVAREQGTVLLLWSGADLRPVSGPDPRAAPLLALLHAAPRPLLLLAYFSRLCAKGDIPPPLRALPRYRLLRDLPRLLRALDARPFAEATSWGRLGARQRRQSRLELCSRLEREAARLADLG
Bridge positions count the residues as written; N and C are the ends. Peptide text beside a SMILES is read from it.
endpointName: pIC50
// pIC50 here means minus log10 of the molar concentration (mol/L)

CC[C@H](C)[C@@H]1NC(=O)[C@H](CCCNC(=N)N)NC(=O)[C@H](Cc2ccc(O)cc2)NC(=O)[C@H](Cc2ccc(O)cc2)NC(=O)[C@H](Cc2c[nH]cn2)NC(=O)[C@H](Cc2c[nH]cn2)NC(=O)[C@H](Cc2ccc(O)cc2)NC(=O)CSC[C@@H](C(=O)NCC(N)=O)NC(=O)CNC(=O)[C@H](CC(C)C)NC(=O)[C@H](CC(=O)O)NC(=O)CNC(=O)[C@H](Cc2ccc(O)cc2)NC(=O)[C@H](CC(C)C)NC1=O ({CH2CO}-YHHYYRILYGDLGCG-NH2; thioether N-14) ... 7.08

Let's switch to this compound now.
Task: Which pIC50 value is on record for CC[C@H](C)[C@@H]1NC(=O)[C@H](Cc2c[nH]cn2)NC(=O)[C@H](Cc2ccc(O)cc2)NC(=O)CSC[C@@H](C(=O)NCC(N)=O)NC(=O)CNC(=O)[C@H](CC(C)C)NC(=O)[C@H](CC(N)=O)NC(=O)CNC(=O)[C@H](Cc2ccc(O)cc2)NC(=O)[C@H](CC(C)C)NC(=O)[C@H](CO)NC(=O)[C@H](C)NC(=O)[C@H](Cc2ccc(O)cc2)NC(=O)[C@H](Cc2ccc(O)cc2)NC1=O ({CH2CO}-YHIYYASLYGNLGCG-NH2; thioether N-14) ?
Result: 8.85
